system: M14 melanoma; experiment: NCI tumour cell line growth inhibition, 48 h
Measured TGI, listed per entry.
The figure you give is taken to be in µM; do not add the unit.

Below, 6 compounds whose answers are already recorded.
| compound | observation.type | units.symbol | readout.number |
| --- | --- | --- | --- |
| C[C@@H](Nc1nc(Nc2ccc(F)c(Cl)c2)nc2ccccc12)C1CC1 | TGI | µM | 4.12 |
| COc1ccc(-c2nn(-c3ccc(NC(=O)Nc4ccc(Cl)c(C(F)(F)F)c4)cc3)cc2-c2ccncc2)cc1Cl | TGI | µM | 3.13 |
| O=C1OCC2=C1C(c1ccccc1)c1cc3c(cc1N2CCO)OCCO3 (stereo unspecified) | TGI | µM | 1.66 |
| C=C1C(=O)O[C@H]2[C@H]1CC/C(COC(=O)NCc1ccc(Cn3c(=O)sn(-c4ccccc4)c3=O)cc1)=C\CC[C@@]1(C)O[C@@H]21 | TGI | µM | 3.58 |
| CCCCCCCCCCCCCCCC1=NC(C)(C)CN1C(C)C | TGI | µM | 2.91 |
| COC1OC2=CCC3C(=O)NC(=O)C3C2[C@H](OCc2ccccc2)C1OCc1ccccc1 (stereo partly specified) | TGI | µM | 3.19 |

Data point: `O=C1C(Cl)=C(Nc2cccc(C(F)(F)F)c2)C(=O)N1Cc1ccc(Cl)cc1` ; TGI = 18.5

Data point: `CCOC(=O)N1CCC(=C2c3ccc(Cl)cc3CCc3cccnc32)CC1` ; TGI = 29.1

Data point: `O=[N+]([O-])c1cccc2nccc(NCCCO)c12` ; TGI = 25.6

Source listed as PubChem BioAssay (NCI).
